Reported KI (Kovats Retention Index) values are given for each entry in this list.
Experiment: Kovats Retention Index by gas chromatography on DB-5 column against n-alkane standards
Format: physicochemical
Conditions: GC, non-isothermal, C8-C22 n-alkane standards
Reply briefly: the number, and no unit.

O=C1CCCCCCCCCCCCCCO1 [Exaltolide]
1882
O=C1CCCCC/C=C/CCCCCCCCO1 [trans-ambrettolide]
1961.1
CCCCCCOC(=O)c1ccccc1O [n-Hexyl salicylate]
1765.1
CCCCCOC(=O)c1ccccc1O [amyl salicylate]
1668.8

Need KI (Kovats Retention Index), item O=C(OC1CCCCC1)c1ccccc1O [Cyclohexyl salicylate]
1821

Need KI (Kovats Retention Index), item O=C1CCCCCCCCC/C=C/CCCO1 [Habanolide]
1862.9

Need KI (Kovats Retention Index), item Cc1ccc(OC(=O)c2ccccc2O)cc1 [p-Cresyl salicylate]
1944.5

Need KI (Kovats Retention Index), item O=C(OCc1ccccc1)c1ccccc1O [Benzyl salicylate]
1920.3

Need KI (Kovats Retention Index), item CC(C)=CCOC(=O)c1ccccc1O [Prenyl salicylate]
1655.3

Need KI (Kovats Retention Index), item O=C(Oc1ccccc1)c1ccccc1O [Phenyl salicylate]
1851.1
